The origin of these recorded values is patent US11739093B2.

assayTarget: SHP2 (Homo sapiens (Human))
testSummary: SHP2 Allosteric Inhibition Assay
runParameters: 0.2 nM SHP2 with 0.5 μM Activating Peptide 1 or 2; surrogate substrate DiFMUP; prompt fluorescence, kinetic read
pIC50: −log10 of the molar value.
reportedProperty: pIC50

Cc1nc(N2CCC(C)(N)CC2)c2cncn2c1-c1cccc(Cl)c1Cl = 6.72

a: C[C@@H]1OCC2(CCN(c3ncc(Sc4ccnc(N)c4Cl)c4ncncc34)CC2)[C@@H]1N
b: Cc1nc(N2CCC3(CC2)CO[C@@H](C)[C@H]3N)c2nccn2c1Sc1ccnc(N)c1Cl
c: CC1(N)CCN(c2ncc(Sc3ccnc(N)c3Cl)c3nsnc23)CC1
Sort ascending by pIC50. Answer format: the labels, in the requested order.
b, c, a
(b: 5.96, c: 6.47, a: 7.08)
